Origin of the recorded values: patent US20180099931A1

Listed below: EC50 values for each entry.
# SUBJECT OF TEST: F508delCFTR (Homo sapiens, UniProt P13569, DEL508-508)
# Construct: expressed in transfected cells; host or cells: CFBE41o- human lung-derived epithelial cells (CFBE4lo-F508delCFTR-HRP), doxycycline-inducible
# Sequence (P13569 with tags, fused parts or gaps DEL508-508): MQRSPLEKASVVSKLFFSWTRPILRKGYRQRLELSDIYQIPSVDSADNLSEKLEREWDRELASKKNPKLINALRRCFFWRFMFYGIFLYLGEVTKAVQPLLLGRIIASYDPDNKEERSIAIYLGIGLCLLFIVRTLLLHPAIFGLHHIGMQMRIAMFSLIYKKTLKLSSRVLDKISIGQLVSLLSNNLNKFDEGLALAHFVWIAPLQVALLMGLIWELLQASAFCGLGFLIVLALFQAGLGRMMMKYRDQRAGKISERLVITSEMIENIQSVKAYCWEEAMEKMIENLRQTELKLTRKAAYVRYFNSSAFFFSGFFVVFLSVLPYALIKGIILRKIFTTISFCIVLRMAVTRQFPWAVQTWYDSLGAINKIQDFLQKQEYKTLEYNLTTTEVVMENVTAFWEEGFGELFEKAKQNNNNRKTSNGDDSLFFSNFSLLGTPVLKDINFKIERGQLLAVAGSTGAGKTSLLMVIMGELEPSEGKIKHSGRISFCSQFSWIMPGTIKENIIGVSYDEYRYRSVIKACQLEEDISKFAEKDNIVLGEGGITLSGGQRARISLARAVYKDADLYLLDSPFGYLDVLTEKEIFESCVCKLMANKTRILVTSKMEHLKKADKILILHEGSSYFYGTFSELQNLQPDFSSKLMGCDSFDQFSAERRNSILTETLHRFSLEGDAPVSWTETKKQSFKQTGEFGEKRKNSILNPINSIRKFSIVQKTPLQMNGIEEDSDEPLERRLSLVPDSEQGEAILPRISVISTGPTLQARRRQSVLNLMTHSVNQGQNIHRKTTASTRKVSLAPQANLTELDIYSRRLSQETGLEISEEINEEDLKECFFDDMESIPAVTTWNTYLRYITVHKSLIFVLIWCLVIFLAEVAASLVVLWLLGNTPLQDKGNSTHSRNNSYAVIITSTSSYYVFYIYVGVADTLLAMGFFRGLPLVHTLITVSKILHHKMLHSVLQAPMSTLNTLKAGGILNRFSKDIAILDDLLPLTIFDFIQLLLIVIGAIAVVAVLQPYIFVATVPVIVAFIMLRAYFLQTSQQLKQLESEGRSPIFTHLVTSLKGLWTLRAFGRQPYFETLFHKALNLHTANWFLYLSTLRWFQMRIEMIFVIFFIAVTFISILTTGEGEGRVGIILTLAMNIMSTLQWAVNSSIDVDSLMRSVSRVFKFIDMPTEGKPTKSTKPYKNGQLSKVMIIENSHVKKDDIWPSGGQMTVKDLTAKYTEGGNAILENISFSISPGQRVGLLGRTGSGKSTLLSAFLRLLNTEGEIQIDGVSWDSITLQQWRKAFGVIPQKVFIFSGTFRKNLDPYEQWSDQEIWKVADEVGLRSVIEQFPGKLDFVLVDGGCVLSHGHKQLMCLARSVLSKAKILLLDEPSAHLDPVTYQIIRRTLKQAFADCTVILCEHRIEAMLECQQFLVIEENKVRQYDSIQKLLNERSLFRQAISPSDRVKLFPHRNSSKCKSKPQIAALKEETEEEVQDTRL
# ASSAY METHOD TEXT: Cell Surface Expression-Horse Radish Peroxidase (CSE-HRP) Assay
# Assay type: cell-based
# CONDITION DESCRIPTION: test compound without co-corrector; read-out: EC50 (without co-corrector)

Worked examples follow.
{"SAMPLE SMILES": "COc1ccc(C(C)(C)C)cc1CN[C@H]1[C@H](C(C)(C)C)[C@@H](C(=O)NS(C)(=O)=O)N(C(=O)C2CCCCC2)[C@H]1c1ccccc1", "VALUE OBSERVED": "1000 to 10000 nM"}
{"SAMPLE SMILES": "COc1ncc(-c2cccc(F)c2F)cc1CN[C@H]1[C@H](C(C)(C)C)[C@@H](C(=O)O)N(C(=O)C2CCCCC2)[C@H]1c1ccccc1", "VALUE OBSERVED": "1000 to 10000 nM"}

stdin: I have this molecule here, COc1ncc(C(F)(F)F)cc1CN[C@H]1[C@H](C(C)(C)C)[C@@H](C(=O)O)N(C(=O)[C@H](C)c2ccccc2)[C@H]1c1cccnc1OC , and I need its recorded EC50.
stdout: 1000 to 10000 nM

stdin: I have this molecule here, COc1ncc(C(F)(F)F)cc1N[C@H]1[C@H](C(C)(C)C)[C@@H](C(=O)O)N(C(=O)[C@@H]2CCCC[C@H]2C(F)(F)F)[C@H]1c1cccnc1N(C)C , and I need its recorded EC50.
stdout: 1000 to 10000 nM

stdin: I have this molecule here, CCOC(=O)N1[C@H](C(=O)O)[C@@H](C(C)(C)C)[C@H](NCc2cc(C(F)(F)F)cnc2OC)[C@@H]1c1ccccc1C(C)C , and I need its recorded EC50.
stdout: < 1000 nM

stdin: I have this molecule here, COc1cc(C(F)(F)F)ccc1CN[C@H]1[C@H](C(C)(C)C)[C@@H](C(=O)O)N(C(=O)OC(C)C)[C@H]1c1cccnc1OC , and I need its recorded EC50.
stdout: 1000 to 10000 nM

###

# SUBJECT OF TEST: F508delCFTR (Homo sapiens, UniProt P13569, DEL508-508)
# Construct: expressed in transfected cells; host or cells: CFBE41o- human lung-derived epithelial cells (CFBE4lo-F508delCFTR-HRP), doxycycline-inducible
# ASSAY METHOD TEXT: Cell Surface Expression-Horse Radish Peroxidase (CSE-HRP) Assay
# Type: cell-based
# CONDITION DESCRIPTION: with co-corrector (2 μM of 3-[(2R,4R)-4-({[1-(2,2-difluoro-1,3-benzodioxol-5-yl)cyclopropyl]carbonyl}amino)-7-methoxy-3,4-dihydro-2H-chromen-2-yl]benzoic acid); read-out: EC50 (with co-corrector)
pEC50: −log10 of the molar value.
Listed below: pEC50 values for each entry.

Worked examples follow.
{"COMPOUND": "COc1ccc(C(C)(C)C)cc1CN[C@H]1[C@H](C(C)(C)C)[C@@H](C(=O)O)N(C(=O)C2COc3c(cccc3OC)C2)[C@H]1c1ccccc1 (stereo partly drawn)", "VALUE OBSERVED": "> 6.00"}
{"COMPOUND": "COc1cc(C(F)(F)F)ccc1CN[C@H]1[C@H](C(C)(C)C)[C@@H](C(=O)O)N(C(=O)[C@@H]2CCCCO2)[C@H]1c1cccnc1N(C)C", "VALUE OBSERVED": "5.00 to 6.00"}
{"COMPOUND": "COc1ccc(C(C)(C)C)cc1CN[C@H]1[C@H](C(C)(C)C)[C@@H](C(=O)O)N(C(=O)C2CCCCC2C)[C@H]1c1cccnc1N(C)C (stereo partly drawn)", "VALUE OBSERVED": "> 6.00"}

stdin: I have this compound here, C=CCCOC(=O)N1[C@H](C(=O)O)[C@@H](C(C)(C)C)[C@H](NCc2cc(C(C)(C)C)ccc2OC)[C@@H]1c1ccccc1 , and I need its recorded pEC50.
stdout: 5.00 to 6.00

stdin: I have this compound here, COc1ccc(C(C)(C)C)cc1CN[C@H]1[C@H](C(C)(C)OC)[C@@H](C(=O)O)N(C(=O)OC(C)C)[C@H]1c1cccnc1N(C)C , and I need its recorded pEC50.
stdout: 5.00 to 6.00

stdin: I have this compound here, CCn1ccc(=O)c(C(=O)N2[C@H](C(=O)O)[C@@H](C(C)(C)C)[C@H](NCc3cc(C(C)(C)C)ccc3OC)[C@@H]2c2ccccc2)c1 , and I need its recorded pEC50.
stdout: < 5.00
